test: High Throughput Blood Level Assay - Mice; assay type: in vivo; conditions: male, Alpk..APfCD-1, plasma, 2 mg/kg; AP mouse, oral cocktail dosing, normalised to 1 mg/kg
Observable: AUC (µM·h)
Numbers only; they are read as µM·h.

## Input Form field: reported AUC of Cc1ncc(-c2nc(Nc3ccc(C(=O)NC4CC4)c(F)c3)ncc2F)n1C(C)C [Example 25]
## Output 1.5

* * *

experiment: High Throughput Blood Level Assay - Mice; format: in vivo; details: male, Alpk..APfCD-1, plasma, 2 mg/kg; AP mouse, oral cocktail dosing, normalised to 1 mg/kg
Observable: Cmax (nM)
Numbers only; they are read as nM.

## Input Form field: reported Cmax of `Cc1ncc(-c2nc(Nc3ccc(C(=O)NC4CC4)c(F)c3)ncc2F)n1C(C)C`
## Output 680
